biological target: Cellular tumor antigen p53 (Homo sapiens) (UniProt P04637); assay: Primary qHTS for small molecule compounds that upregulate eGFP-tagged delta133p53alpha (in N-terminal) cells. (AID 2060322); details: NCI-H358 eGFP-delta133p53alpha fluorescence, 24 h; further: nearly all actives have a fitted effect of over 75% in size; further: potency means the concentration at half of the fitted maximal effect;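 on activation: cells pre-induced with doxycycline then dosed without doxycycline; 0% = DMSO vehicle and 100% = reference activator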
Sequence (P04637 whole entry, looked up): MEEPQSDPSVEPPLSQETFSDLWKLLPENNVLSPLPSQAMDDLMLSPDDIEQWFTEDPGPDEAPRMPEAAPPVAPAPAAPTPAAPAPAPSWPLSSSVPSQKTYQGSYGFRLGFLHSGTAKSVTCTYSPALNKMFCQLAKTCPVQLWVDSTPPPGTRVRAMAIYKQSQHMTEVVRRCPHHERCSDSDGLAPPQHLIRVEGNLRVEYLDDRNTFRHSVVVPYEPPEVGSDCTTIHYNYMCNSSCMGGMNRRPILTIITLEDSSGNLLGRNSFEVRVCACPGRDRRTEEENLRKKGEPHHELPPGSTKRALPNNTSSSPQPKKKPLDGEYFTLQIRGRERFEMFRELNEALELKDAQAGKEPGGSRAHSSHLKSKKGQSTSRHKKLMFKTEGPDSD
Inconclusive results are not listed. Active and inactive are the calls of the source. The call rests on the fitted dose curve; in most records, active means well fitted activation curve with a large enough effect; inconclusive means small, poorly fitted or top-dose-only effect; inactive means no such curve, though single readings can be large or run the other way.
endpoint: Potency

- Cc1cccc(/C=N/Nc2cc(N3CCOCC3)n3nc(-c4ccncc4)cc3n2)c1: 19 µM (active)
- Cc1ccc([N+](=O)[O-])cc1S(=O)(=O)N(C)/N=C/c1cnc2ccc(Br)cn12: 0.213 µM (active)
- N#C/C(=C1\Nc2ccccc2S1)c1ccnc(NCCc2cccnc2)n1: 19 µM (active)
- CCCCNc1ncc2c(-c3ccc(CN4CCN(C)CC4)cc3)cn(C3CCC(O)CC3)c2n1 (centres undefined): 21.3 µM (active)
- C=CC(=O)Nc1cc2c(Nc3ccc(F)c(Cl)c3)ncnc2cc1OCCCN1CCOCC1: 4.9 µM (active)
- Nc1nc(Nc2ccc(S(N)(=O)=O)cc2)n(C(=S)Nc2c(F)cccc2F)n1: 2.13 µM (active)
- C=C1C(=O)O[C@@H]2/C=C(/C)CC3C=C(C[C@H](OC(=O)/C(C)=C\C)[C@@H]12)C(=O)O3 (some centres undefined): 11.7 µM (active)
- COc1cc2c(Nc3cc(F)c(Cl)c(Cl)c3)ncnc2cc1OCC1CCCN(C)CCC1: 23.9 µM (active)
- CN(C)C/C=C/C(=O)Nc1cccc(C(=O)Nc2cccc(Nc3ncc(Cl)c(-c4c[nH]c5ccccc45)n3)c2)c1: 0.239 µM (active)

###

# activation per record follows
target: Cellular tumor antigen p53 (Homo sapiens); experiment: Primary qHTS for small molecule compounds that upregulate eGFP-tagged delta133p53alpha (in N-terminal) cells. (AID 2060322); settings: NCI-H358 eGFP-delta133p53alpha fluorescence, 24 h; stronger effect = higher value; further: nearly all actives have a fitted effect of over 75% in size;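 on activation: cells pre-induced with doxycycline then dosed without doxycycline; 0% = DMSO vehicle and 100% = reference activator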
Inconclusive results are not listed.
endpoint: activation (%)

• CC1(C)CC=C(c2cnc3ccccc3c2)c2cc(C(=O)Nc3ccc(C(=O)O)cc3)ccc21 = 3.34
• Fc1ccc(-c2c3cccc(C(F)(F)F)c3nn2Cc2ccc(F)cc2Cl)cc1 = -8.11
• CCNC(=O)Nc1ccc(-c2nc3c(c(N4CCOC[C@H]4C)n2)CCN(C2COC2)C3)cc1 = 5.73
• C=C[C@](C)(CC/C=C(\C)C(=O)O)O[C@@H]1OC[C@H](O)[C@H](O)[C@H]1O = 7.14
• O=C(OCCN1CCOCC1)c1cccnc1Nc1cccc(C(F)(F)F)c1 = -7.34

###

target: Aldehyde dehydrogenase, mitochondrial (Homo sapiens) (UniProt P05091); assay: qHTS for Inhibitors of the Aldehyde Dehydrogenase Family (ALDH2) Primary screen (AID 2061308); details: ALDH2 enzyme inhibition qHTS, 1536-well; series mostly up to 56 µM;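 further: plate controls were vehicle for no effect and reference inhibitor for full effect; nearly all actives have a fitted effect of over 55% in size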
Results filed as inconclusive are left out. Activity calls are given as the source filed them. Calls come from the whole dose curve; as a rule, active = well fitted inhibition curve with a large enough effect; inconclusive = small, poorly fitted or top-dose-only effect; inactive = flat fitted curve, though single readings scatter.
endpoint: activity change, negative = inhibition

• Cc1cccc(Nc2nc(C#N)nc(NC3CCCC3)n2)c1 = inactive
• O=C(Nc1cccc(Br)c1)c1cccc(S(=O)(=O)N2CCCCCC2)c1 = inactive
• COc1ccc2c(c1)O[C@H](O[C@@H]1O[C@H](CO)[C@@H](O)[C@H](O)[C@H]1O)C(=O)N2 = inactive
• CC(C)(C)c1ccc2c(c1)CC[C@H]2NC(=O)Nc1cccc2[nH]ncc12 = inactive
• CN1CCc2c(n(Cc3ccc(C(=O)NO)cc3)c3ccccc23)C1 = inactive
• NC(=O)c1cnc(-c2ccc(C3(N)CCC3)cc2)c(-c2ccccc2)c1 = inactive
• COC(=O)c1cc(Br)cnc1N1CCC(NC2CCCCC2)C(O)C1 (stereo not given) = inactive
• CC1(C(=O)O)CCCC2(C)C3CCC4CC3(CCC12)CC4=O (stereo not given) = inactive
• COc1cc(C(=O)O)ccc1OC1OC(CO)C(O)C(O)C1O (stereo not given) = inactive
• Cc1cc(C)c(-c2csc(NC(=O)c3ccccc3)n2)c(C)c1 = inactive

###

experiment: BET inhibitor-based combinations targeting novel dependencies in MECOM-rearranged (r) AML: AML-191 cell line (AID 2202236; further: nearly all actives have a fitted effect of over 35% in size); settings: AML-191 viability, CellTiter-Glo luminescence, 48 h; series mostly up to 46 µM
Results filed as inconclusive are left out. Calls of active or inactive are those of the source. The call rests on the fitted dose curve; in most records, active means well fitted inhibition curve with a large enough effect; inconclusive means small, poorly fitted or top-dose-only effect; inactive means flat fitted curve, though single readings scatter.
Labels: 1 (yes) (active), 0 (no) (inactive)

- Cc1cnc(Nc2ccc(N3CCN(C)CC3)cc2)nc1Nc1cccc(S(=O)(=O)NC(C)(C)C)c1: 1 (yes)
- O=C(O)CCc1ccc(NCc2cccc(Oc3ccccc3)c2)cc1: 0 (no)
- C[C@]12CCC3c4ccc(O)cc4CCC3C1CCC2=O (stereo not given in full): 0 (no)
- CCOc1cc2ncc(C#N)c(Nc3ccc(F)c(Cl)c3)c2cc1NC(=O)/C=C/CN(C)C: 1 (yes)
- CN[C@@H]1CN(c2ccc3c(=O)c(C(=O)O)cn(-c4nccs4)c3n2)C[C@@H]1OC: 1 (yes)
- COc1ccc(F)c(F)c1C(=O)c1cnc(NC2CCN(S(C)(=O)=O)CC2)nc1N: 1 (yes)
- COc1cccc2c1CCCC2CCCN1CCN(C2CCCCC2)CC1 (stereo not given): 1 (yes)
- Nc1ncnc2c1c(-c1cccc(OCc3ccccc3)c1)cn2C1CC(CN2CCC2)C1 (stereo not given): 1 (yes)
- COC(=O)[C@@H]1[C@H]2C[C@H]3c4[nH]c5ccccc5c4CCN3C[C@@H]2CC[C@@H]1O: 0 (no)
- CN1CCC(CNc2ccc3ncc(-c4cccc(OC(F)(F)F)c4)n3n2)CC1: 1 (yes)

###

target: Aldehyde dehydrogenase 1A1 (Homo sapiens) (UniProt P00352); experiment: qHTS for Inhibitors of the Aldehyde Dehydrogenase Family (ALDH1A1) Confirmatory screens (AID 2061316); conditions: ALDH inhibition qHTS; series mostly up to 47.3 µM; further: nearly all actives have a fitted effect of over 65% in size; further: potency means the concentration at half of the fitted maximal effect
Inconclusive results are not listed. Active and inactive are the calls of the source. Calls follow the shape of the dose curve; as a rule, active = well fitted inhibition curve with a large enough effect; inconclusive = small, poorly fitted or top-dose-only effect; inactive = no such curve, though single readings can be large or run the other way.
endpoint: Potency

* OC[C@@]1(O)CO[C@@H](OC[C@H]2O[C@@H](Oc3c[nH]c4ccccc34)[C@H](O)[C@@H](O)[C@@H]2O)[C@@H]1O | inactive
* CN(C)CCCNc1ncnc2ccc(-c3ccc4c(c3)OCO4)cc12 | inactive
* NS(=O)(=O)c1cccc2c1c([N+](=O)[O-])cc1nc(O)c(O)nc12 | 12.7 µM (active)
* CO/N=C(/C(=O)N[C@@H]1C(=O)N2C(C(=O)O)=C(CSC(=O)c3ccco3)CS[C@H]12)c1csc(N)n1 | 5.65 µM (active)
* CCCn1cnc2c1c(=O)n(CCCCC(C)=O)c(=O)n2C | inactive
* O=C(CCN1CCN(C(=O)OCc2cc(Cl)cc(Cl)c2)CC1)c1ccc2[nH]c(=O)oc2c1 | 0.252 µM (active)
* COc1nc2ccc(Br)cc2cc1[C@@H](c1ccccc1)[C@@](O)(CCN(C)C)c1cccc2ccccc12 | 0.142 µM (active)
* CCN(CC)CCNC(=O)c1ccc(N)cc1 | inactive
* Nc1nnc(-c2ccc3ccccc3c2)o1 | inactive
* CC(C(=O)O)c1ccc2c(c1)CC(=O)c1ccccc1S2 (configuration not stated) | inactive
* CC(C)(C)OC(=O)N1CCN(c2cnc(NCc3ccc(-c4ccc(C#N)cc4)o3)cn2)CC1 | 4.49 µM (active)
* Cc1ccc(OCCn2c(CCNC(=O)c3ccc(N)cc3)nc3ccccc32)cc1 | 3.18 µM (active)
* C=CC(=O)N1CCN(C(=O)CNc2cc(-c3ccccc3Cl)c(Cl)cc2OC)CC1 | inactive
* N#Cc1c(-c2ccc(C(=O)c3ccc(O)cc3)cc2)no[n+]1[O-] | 12.7 µM (active)
* Cc1ccnc(NC(=S)N2CCN(c3cccc(Cl)c3Cl)CC2)c1 | 3.18 µM (active)
* O=C(NC1CCCc2c1cnn2-c1ccc(F)cc1F)c1ccccn1 (configuration not stated) | inactive
* O=C(O)CSc1cc(NS(=O)(=O)c2ccc(Br)cc2)c2ccccc2c1O | 0.565 µM (active)
* Cc1noc(C)c1-c1ccc2ncnc(NCc3ccc(F)cc3)c2c1 | 20.1 µM (active)
* Cc1nc(NCc2ccc(-c3cccnc3)cc2)c2ccccc2n1 | inactive
* O=C1NC(=O)C(c2cn(-c3ccccc3)nc2-c2ccc(F)cc2)N1 (configuration not stated) | inactive
* Cc1c(C(=O)OCC2CCCO2)[nH]c2c1C(=O)CCC2 (configuration not stated) | 3.18 µM (active)
* CC1CC(O)CC(C)(C)C1(O)CCO (configuration not stated) | inactive
* CC(=O)N(O)CCCCCN1C(=O)CCC1=O | inactive
* Cc1cc(C)nc(NC(=S)N2CCN(c3cncc4ccccc34)CC2)c1 | 5.65 µM (active)
* C=C1C(=O)O[C@@H]2[C@H]1CC(=O)[C@H](C)[C@@](O)(C(=O)/C=C/C)[C@H]2OC(=O)C(C)CC (some centres not stated) | inactive
* COc1ccc(N2Cc3cccc(C(=O)O)c3C2=O)c(OC)c1 | inactive
* CC(C)c1ccccc1-c1nc2c(c(NCc3ccc(-c4cccnc4)cc3)n1)CCNC2 | inactive
* O=C1NC(c2cccc([N+](=O)[O-])c2)=CCN1c1ccccc1O | inactive
* O=C(CN1C(=O)CC(c2ccco2)Sc2ccccc21)Nc1ccccc1F (configuration not stated) | 2.52 µM (active)
* CC(C)(C)OC(=O)N1CCN(c2ccc(NCc3cnc(-c4ccc(C#N)cc4)o3)cc2)CC1 | inactive
* COc1ccc(NC(=O)O[C@@H]2CO[C@H]3[C@@H]2OC[C@@H]3n2nnnc2SCc2ccco2)cc1 | 10.2 µM (active)
* CCNC(=O)OC1CCN(c2nncc3cc(OC)c(OC)cc23)CC1 | inactive
* O=c1nc(-c2ccccn2)sc2ccccc12 | 1.13 µM (active)
* C=CCNc1oc(-c2cccs2)nc1C#N | inactive
* CC1(C)CCC2(C(=O)OC3OC(CO)C(O)C(O)C3O)CCC3(C)C(=CCC4C5(C)CCC(O)C(C)(C(=O)O)C5CCC43C)C2C1O (configuration not stated) | inactive
* COc1ccc(CCO[C@@H]2CCCC[C@H]2N2CC[C@@H](O)C2)cc1OC | inactive
* N[C@@H](CCC(=O)O)C(=O)Nc1ccc(Cl)cc1C(=O)c1ccc[nH]1 | inactive
* CC1CN(S(=O)(=O)c2cccc3cnccc23)CCN1 (configuration not stated) | inactive
* COc1ccc(C2Nc3ccccc3C(=O)N2Cc2ccco2)cc1COc1cccc(NC(C)=O)c1 (configuration not stated) | 4 µM (active)
* CC(C)(C)OC(=O)N1CCN(c2ccc(NCc3ccc(-c4ccc(C#N)cc4)o3)nc2)CC1 | 7.12 µM (active)
* Cn1ncc2c(C(=O)NCC(F)F)cc(-c3cccc(C(F)(F)F)c3)nc21 | inactive
* CC(=O)Nc1sc2c(c1-c1nc3ccccc3s1)CNC2 | 6.34 µM (active)
